SYSTEM_TESTED: melanocortin MC-4 receptor (Homo sapiens, UniProt P32245)
Construct: purchased Receptor Biology Inc
Sequence (P32245 whole entry): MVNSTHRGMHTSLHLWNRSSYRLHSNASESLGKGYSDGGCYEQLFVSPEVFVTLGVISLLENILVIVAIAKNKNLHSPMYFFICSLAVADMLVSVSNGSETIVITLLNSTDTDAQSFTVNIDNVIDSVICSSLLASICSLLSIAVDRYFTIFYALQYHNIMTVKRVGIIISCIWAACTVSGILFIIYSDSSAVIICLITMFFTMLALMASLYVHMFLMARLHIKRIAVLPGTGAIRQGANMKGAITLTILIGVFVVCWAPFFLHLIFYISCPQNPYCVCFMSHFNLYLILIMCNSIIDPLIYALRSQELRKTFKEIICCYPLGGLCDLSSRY
ASSAY_TEXT: MC-4 receptor binding (Filtration)
CONDITION_DESCRIPTION: cell prints its own unit nm in the Filtration (μM) column; read-out: IC50 MC-4 (Filtration)
ENDPOINT: IC50
Be sure to follow the number with its unit.

# get_value(readout='IC50', item= c1ccc(CNc2nc(-c3ccccc3)[n+](-c3ccccc3)s2)cc1 )
0.082 µM

* * *

Provide the reported IC50 of each item.
SYSTEM_TESTED: melanocortin MC-4 receptor (Homo sapiens)
Construct: purchased Receptor Biology Inc
ASSAY_TEXT: Melanocortin MC-4 Receptor Binding Assay (SPA)
Numbers only, in nM.

>  <COMPOUND>
Clc1ccc(Nc2nc(-c3ccccc3)[n+](-c3ccccc3Cl)s2)cc1 [Compound 47]

>  <ENDPOINT_UNIT>
nM

>  <IC50>
874

$$$$

Hi team, please reply with IC50 for each item in this list.
1. COc1ccc(Nc2nc(-c3ccccc3OC)[n+](-c3ccccc3OC)s2)cc1 [Compound 75]
2. COc1ccccc1-[n+]1sc(Nc2ccccc2C)nc1-c1ccc(C)cc1 [Compound 69]
3. c1ccc(Nc2nc(-c3ccccc3)[n+](-c3ccccc3)s2)cc1 [Compound 22]
4. COc1ccccc1-c1nc(Nc2ccc(Cl)cc2)s[n+]1-c1ccccc1OC [Compound 79]
5. COc1ccccc1-c1nc(Nc2cccnc2)s[n+]1-c1ccccc1OC [Compound 81]
6. COc1ccccc1-c1nc(Nc2ccccc2)s[n+]1-c1ccccc1OC.[Br-] [Compound 74]
7. Cc1ccc(Nc2nc(-c3ccccc3)[n+](-c3ccc(C)cc3)s2)cc1 [Compound 4]

103
139
124
216
672
194
297
